Molecular target: human CD123 on CHO cells expressing human CD123 (human) (UniProt P26951)
Sequence (P26951 19-378): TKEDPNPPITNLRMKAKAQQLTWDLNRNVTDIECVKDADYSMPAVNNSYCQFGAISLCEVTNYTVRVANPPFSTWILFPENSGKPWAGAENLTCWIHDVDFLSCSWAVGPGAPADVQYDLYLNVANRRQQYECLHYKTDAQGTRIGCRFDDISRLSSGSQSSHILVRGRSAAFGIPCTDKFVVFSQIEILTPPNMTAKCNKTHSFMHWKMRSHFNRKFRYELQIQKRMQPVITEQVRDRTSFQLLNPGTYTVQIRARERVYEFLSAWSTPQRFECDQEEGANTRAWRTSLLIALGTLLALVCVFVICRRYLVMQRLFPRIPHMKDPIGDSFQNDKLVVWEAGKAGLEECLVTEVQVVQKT
Assay: flow cytometry on CHO cells expressing human CD123, 4-parameter fit
measured parameter: Max binding intensity (MFI)
Answer with a number only, understood to be in MFI.

Please report Max binding intensity (MFI) for the following binder: h32716-4-2 IgG (antibody, V domains shown) VH: QVQLVQSGPELKKPGASVKVSCKASGYIFTNYGMNWVRQAPGQGLEWMGWINTYTGESTYSADFKGRFVFSLDTSVSTAYLQISSLKAEDTAVYYCARSGGYDPMDYWGQGTLVTVSS VL: DIQMTQSPSSLSASVGDRVTITCRASESVDNYGNTFMHWYQQKPGKAPKLLIYRASNLESGVPSRFSGSGSGTDFTFTISSLQPEDIATYYCQQSNEDPPTFGQGTKVEIK
980000

Please report Max binding intensity (MFI) for the following binder: h32716-5-2 IgG (antibody, V domains shown) VH: QVQLVQSGPELKKPGASVKVSCKASGYIFTNYGMNWVKQAPGQGLEWMGWINTYTGESTYSADFKGRFVFSLDTSVSTAYLQISSLKAEDTAVYYCARSGGYDPMDYWGQGTLVTVSS VL: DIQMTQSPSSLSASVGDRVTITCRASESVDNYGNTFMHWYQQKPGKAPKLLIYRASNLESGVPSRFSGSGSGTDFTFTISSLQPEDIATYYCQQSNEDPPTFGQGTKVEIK
1.1e+06

Please report Max binding intensity (MFI) for the following binder: 32716 IgG (antibody, V domains shown) VH: QIQLVQSGPELKKPGETVKISCKASGYIFTNYGMNWVKQAPGKSFKWMGWINTYTGESTYSADFKGRFAFSLETSASTAYLHINDLKNEDTATYFCARSGGYDPMDYWGQGTSVTVSS VL: DIVLTQSPASLAVSLGQRATISCRASESVDNYGNTFMHWYQQKPGQPPKLLIYRASNLESGIPARFSGSGSRTDFTLTINPVEADDVATYYCQQSNEDPPTFGAGTKLELK
910000

More entries:
Please report Max binding intensity (MFI) for the following binder: h32716-6-2 IgG (antibody, V domains shown) VH: QVQLVQSGPELKKPGASVKVSCKASGYIFTNYGMNWVKQAPGQGFKWMGWINTYTGESTYSADFKGRFVFSLDTSVSTAYLQISSLKAEDTAVYYCARSGGYDPMDYWGQGTLVTVSS VL: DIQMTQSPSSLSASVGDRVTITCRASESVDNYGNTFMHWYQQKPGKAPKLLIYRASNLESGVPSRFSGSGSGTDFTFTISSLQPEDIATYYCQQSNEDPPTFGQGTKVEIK
1e+06

Please report Max binding intensity (MFI) for the following binder: h32716-1-1 IgG (antibody, V domains shown) VH: QVQLVQSGAEVKKPGSSVKVSCKASGYIFTNYGMNWVRQAPGQGLEWMGWINTYTGESTYSADFKGRVTITADESTSTAYMELSSLRSEDTAVYYCARSGGYDPMDYWGQGTLVTVSS VL: DIVMTQSPDSLAVSLGERATINCRASESVDNYGNTFMHWYQQKPGQPPKLLIYRASNLESGVPDRFSGSGSGTDFTLTISSLQAEDVAVYYCQQSNEDPPTFGQGTRLEIK
950000
